experiment: NRU cell viability assay, HeLa; format: cell-based, human; conditions: human, HeLa cells (epithelial carcinoma), highest tested concentration (250 µg/mL)
READOUT LABEL: viability at 24 h, 250 µg/mL

Return reported viability at 24 h, 250 µg/mL; argument: `C[C@@H]1CN([C@@H](C)c2ccccc2)C(=O)C1(Cl)Cl` 20 to 30%

###

test: NRU cell viability assay, MCF-7; format: cell-based, human; details: human, MCF-7 cells (breast adenocarcinoma), MCF-7, NRU, highest tested concentration (250 µg/mL)
READOUT LABEL: viability at 24 h, 250 µg/mL

Return reported viability at 24 h, 250 µg/mL; argument: `C[C@@H]1CN([C@@H](C)c2ccccc2)C(=O)C1(Cl)Cl` 20 to 30%

###

test system: MCF-7 cells; assay: NRU cell viability assay, MCF-7; format: cell-based, human; conditions: Homo sapiens, MCF7; MCF-7, NRU, 24 h
READOUT LABEL: IC50

These recorded examples may help you get a feel for the data.
>>> reported("C[C@@H]1CN([C@@H](C)c2ccccc2)C(=O)C1(Cl)Cl")
"60 µg/mL"
>>> reported("C[C@H](c1ccccc1)N1C[C@H](C)C(Cl)(Cl)C1=O")
"> 250 µg/mL"

Return reported IC50; argument: C[C@H](c1ccccc1)N1C[C@@H](C)C(Cl)(Cl)C1=O [epi-4] > 250 µg/mL

How about C[C@@H](c1ccccc1)N1C[C@H](C)C(Cl)(Cl)C1=O [epi-3] ? > 250 µg/mL

###

test system: 3T3 cells; test: NRU cell viability assay, 3T3; assay type: cell-based; settings: Mus musculus, NIH3T3; 3T3, NRU, 24 h
// reported IC50 for each item listed
# value in mg/L; strip the unit string

>>> reported("C[C@H](c1ccccc1)N1C[C@H](C)C(Cl)(Cl)C1=O")
173
>>> reported("C[C@@H](c1ccccc1)N1C[C@H](C)C(Cl)(Cl)C1=O [epi-3]")
77.2
>>> reported("C[C@H](c1ccccc1)N1C[C@@H](C)C(Cl)(Cl)C1=O [epi-4]")
153

Return reported IC50; argument: `C[C@@H]1CN([C@@H](C)c2ccccc2)C(=O)C1(Cl)Cl` 65

Values were extracted from paper PMC12736018.
